Hi there, I'd appreciate the recorded Relative IC50 (IC50 relative to CM-1), IL-6 release from hS100A8/A9-activated human PBMCs for every entry that follows.
# SUBJECT OF TEST: T1, human S100A8/A9 heterodimeric antigen, His-tagged (hS100A8/A9-His) (human, UniProt P05109 1-93; P06702 1-114)
# T1 sequence 1: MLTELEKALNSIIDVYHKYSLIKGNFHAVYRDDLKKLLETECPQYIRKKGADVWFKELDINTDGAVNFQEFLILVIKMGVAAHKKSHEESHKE
# T1 sequence 2: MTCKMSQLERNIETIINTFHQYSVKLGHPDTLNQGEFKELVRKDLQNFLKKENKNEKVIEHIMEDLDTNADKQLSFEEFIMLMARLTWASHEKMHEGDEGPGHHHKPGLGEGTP
# PROCEDURE TEXT: cell-based or functional assay

Query: Supply Relative IC50 (IC50 relative to CM-1), IL-6 release from hS100A8/A9-activated human PBMCs value. Item: CM-93 (antibody, human IgG4 S228P, lambda, V domains shown) VH: EVQLVESGGGLVQPGGSLRLSCAASGFTFSDYAMSWVRQAPGKGLEWVSAISGSGGSTYYAASVKGRFTISRDNSKNTLYLQMNSLRAEDTAVYYCARKYRPSRVFDAWGQGTLVTVSS VL: SYELTQPPSVSVAPGQTARITCSGDALGDKYASWYQQKPGQAPVLVIYEDAKRPDGIPERFSGSNSGNTATLTISGTQAEDEADYYCQSNDADAYWVFGGGTKLTVLG
Result: 0.953 relative to CM-1

Query: Supply Relative IC50 (IC50 relative to CM-1), IL-6 release from hS100A8/A9-activated human PBMCs value. Item: CM-94 (antibody, human IgG4 S228P, lambda, V domains shown) VH: EVQLVESGGGLVQPGGSLRLSCAASGFTFSDYAMSWVRQAPGKGLEWVSAISGSGGSTYYAASVKGRFTISRDNSKNTLYLQMNSLRAEDTAVYYCARKYRPSRVFDAWGQGTLVTVSS VL: SYELTQPPSVSVAPGQTARITCSGDALHDKYASWYQQKPGQAPVLVIYEHHKRPSGIPERFSGSNSGNTATLTISGTQAEDEADYYCQSNDADAVWVFGGGTKLTVLG
Result: 2.81 relative to CM-1
